- Tested on: cell imaging, HER kinase expression, mean fluorescence
- Method notes: HER kinase expression suppression, imaging readout – mean fluorescence, total cell number, dose response (AID 814)
Activity calls are given as the source filed them. No rule for the calls is given here.
Can you answer with just one of these options? active, inactive

Sample answers from the record:
| Compound | Label class |
| --- | --- |
| COc1ccc(C(=O)C(CN2CCCC2)c2ccccc2)cc1 (stereo not drawn) | active |
| CC(=O)c1sc2nc(-c3cccs3)cc(C(F)(F)F)c2c1N | inactive |
| O=S(=O)(C/C(=C/CO)S(=O)(=O)c1ccccc1)c1ccccc1 | inactive |
| Cc1nc(NC(=O)c2ccco2)sc1C(=O)Nc1ccc(Br)cc1 | active |
| Nc1nnnn1/N=C/C(Br)=C/c1ccccc1 | active |

# outcome recorded in this test, key = `O=C(CSc1nc2cc(Cl)ccc2s1)c1ccco1`
inactive

// next record `CS(=O)(=O)c1nc(-c2ccco2)cc(C(F)(F)F)n1`
inactive

What would you report for `O=S1(=O)C=C(Sc2nc3ccccc3s2)c2ccccc21` ?
active
